- subject_of_test: Regulator of G-protein signaling 16 (Homo sapiens) + Guanine nucleotide-binding protein G(o) subunit alpha (Homo sapiens) (UniProt O15492+P09471)
- Sequence (O15492 whole entry, looked up): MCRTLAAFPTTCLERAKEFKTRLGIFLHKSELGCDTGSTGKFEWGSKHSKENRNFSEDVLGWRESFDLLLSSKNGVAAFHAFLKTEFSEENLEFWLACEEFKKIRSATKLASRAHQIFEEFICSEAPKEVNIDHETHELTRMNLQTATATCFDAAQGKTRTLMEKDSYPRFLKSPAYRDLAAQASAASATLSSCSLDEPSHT
- Sequence (P09471 whole entry, looked up): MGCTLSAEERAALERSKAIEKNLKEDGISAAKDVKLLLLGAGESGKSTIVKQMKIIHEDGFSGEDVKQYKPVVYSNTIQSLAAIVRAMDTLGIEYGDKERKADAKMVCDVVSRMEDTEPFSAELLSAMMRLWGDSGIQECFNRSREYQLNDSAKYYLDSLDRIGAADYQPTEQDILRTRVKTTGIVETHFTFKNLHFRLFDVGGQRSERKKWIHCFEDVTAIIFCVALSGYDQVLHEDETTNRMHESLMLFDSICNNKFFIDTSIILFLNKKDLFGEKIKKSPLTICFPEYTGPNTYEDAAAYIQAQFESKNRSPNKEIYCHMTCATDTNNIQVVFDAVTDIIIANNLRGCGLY
- procedure_text: modulators of RGS16 binding to Galphao, primary screen, biochemical, human proteins, multiplexed bead flow cytometry (AID 1441);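 further: Galphao activated by GDP with aluminum fluoride before binding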
- setup_conditions: bead-based flow cytometry RGS16-Galphao binding, fluorescence; at 10 µM; actives lie on both sides
Hit rate of the full screen: of about 220,000 compounds, about 830 (0.38%) were called active. How the calls were made is not given here. Only a selection was taken, and actives are over-represented in it overall.
Output constraint: value belongs to T (active), F (inactive)

// known answers, use as guide
CCCn1c(C)cc(C(=O)COC(=O)c2c(C)nn(-c3ccccc3)c2C)c1C: T
C/C(=C/C(=O)N1CCN(C)CC1)C(=O)O: T
CC(=O)Nc1ccc(/C=N/Nc2ccc(C(=O)c3c(C)cc4ccccn34)cc2[N+](=O)[O-])cc1: F
Cc1nn(-c2ccccc2)c(=O)c2noc(C)c12: F
COc1ccc(/C(O)=C2\C(=O)C(=O)N(Cc3ccco3)C2c2ccc(OC)cc2OC)cc1 (stereo not drawn): F
FC(F)Oc1ccccc1C1CC(c2ccc(Br)s2)Nc2ncnn21 (stereo not drawn): T
O=c1[nH]c2ccccc2s1: T
CCOc1ccccc1NC(=O)c1cc(S(=O)(=O)N2CCC3(CC2)OCCO3)ccc1F: T
CC(=O)N(CN1C(=O)C2C3C=CC(C3)C2C1=O)c1cccc(Cl)c1 (stereo not drawn): F
CC(NC(=O)C1CCC(CNc2c(N3CCOCC3)c(=O)c2=O)CC1)c1ccccc1 (stereo not drawn): F

Consider the record given below.
Recorded test outcome, item O=C(COc1ccccc1)N1CCc2ccccc2C1
F

###

- subject_of_test: Regulator of G-protein signaling 16 (Homo sapiens) + Guanine nucleotide-binding protein G(o) subunit alpha (Homo sapiens) (UniProt O15492+P09471)
- procedure_text: modulators of RGS16 binding to Galphao, primary screen, biochemical, human proteins, multiplexed bead flow cytometry (AID 1441);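 further: Galphao activated by GDP with aluminum fluoride before binding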
- setup_conditions: bead-based flow cytometry RGS16-Galphao binding, fluorescence; at 10 µM; actives lie on both sides
Out of some 220,000 compounds screened, about 830 (0.38%) were called active. The rule behind the calls is not given here. Shown is part of a subset that was picked to be rich in actives.
Would you mind answering with one of these outcomes? active, inactive

Would you please look over these solved cases?
CC(C)CC(=O)Nc1cc(C(F)(F)F)ccc1N1CCOCC1: inactive
COC(=O)c1ccccc1OCC(=O)N1CCN(c2ccc(Cl)cc2)CC1: active
CN1CCN(S(=O)(=O)c2ccc(N3CCN(S(=O)(=O)c4cccs4)CC3)nc2)CC1: inactive
CNC(=S)NNC(=O)c1cccn(Cc2ccccc2)c1=O: inactive
O=C(Cn1ncc(N2CCCC2)c(Br)c1=O)c1ccc(Cl)cc1: inactive

Can you look up the reported call for COc1cc(C(=O)Nc2cc(C(F)(F)F)ccc2N2CCOCC2)ccc1O for me?
active

Returns: the outcome recorded for Cc1ccc(NC(=O)NCC(c2cccnc2)N2CCOCC2)cc1 (stereo not drawn) in this assay.
inactive

Which outcome was entered for the compound O=C(Nc1ccc2cn[nH]c2c1)c1ccc(S(=O)(=O)N2CCOCC2)cc1 in this test?
inactive

Recorded test call requested for NS(=O)(=O)c1cccc(NC(=O)CSc2nc3ccccc3n2-c2ccccc2)c1
inactive

###

Listing of entries alongside the reported binding response (% of control).
- subject_of_test: Regulator of G-protein signaling 16 (Homo sapiens) + Guanine nucleotide-binding protein G(o) subunit alpha (Homo sapiens) (UniProt O15492+P09471)
- procedure_text: modulators of RGS16 binding to Galphao, primary screen, biochemical, human proteins, multiplexed bead flow cytometry (AID 1441);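 further: Galphao activated by GDP with aluminum fluoride before binding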
- setup_conditions: bead-based flow cytometry RGS16-Galphao binding, fluorescence; at 10 µM; actives lie on both sides
The campaign covered roughly 220,000 compounds. About 830 (0.38%) were called active. The sample as a whole holds a higher share of actives than the screen did.

Worked set:
COc1ccc(-n2c(SCC(=O)OC(C)C)nnc2-c2ccccn2)cc1: 242% [activator] (active)
NC(=O)CSc1c[nH]c2ccccc12: 19.6% (active)
COc1ccc2c(c1)C(=C(C#N)C#N)C(=O)N2CCc1ccccc1: 113% (inactive)
O=C1C2C3C=CC(C3)C2C(=O)N1c1ccc(S(=O)(=O)Nc2nccs2)cc1 (stereo not drawn): 93.2% (inactive)

What value of measured binding response (% of control) is listed for COc1cc(OC)cc(C(=O)NCCSCc2ccco2)c1 ?
97.1% (inactive)

// binding response (% of control) lookup, key: COc1ccc(-c2ccc(CNCCCN3CCOCC3)o2)cc1Cl
98.4% (inactive)

For the compound Cc1ccc(SCC2=NNC(=O)C2)cc1 , what binding response (% of control) is on record?
110% (inactive)

Please report the recorded binding response (% of control) for O=c1c(-c2ccc(Cl)cc2)[n+]([O-])c2ccccc2n1OCc1nc2ccccc2[nH]1 .
108% (inactive)

May I ask what binding response (% of control) has been recorded for Cc1cccc(NC(=O)c2nc[nH]c2C(=O)NCC(=O)OCc2ccccc2)c1 ?
110% (inactive)
